In this section, each of the compounds is paired with its reported viability.
# test-details: growth inhibitors of H69AR lung tumor, primary screen, human, duplicate replicates (AID 580);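 note: 100% = mean luminescence of untreated wells and 0% = no signal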
# protocol-conditions: H69AR lung tumor cells viability, ATP luminescence, 72 h; at 10 µM; stronger effect = lower value
Give the value, in units of %, as a plain number.

Known results for compounds:
compound	viability (%)
CCOC(=O)C1(c2ccccc2)NC(c2ccc(N(C)C)cc2)C2C(=O)N(C)C(=O)C21 (stereo not drawn)	94.4
Cc1cc(=O)n2[nH]c(-c3ccc(Cl)cc3)cc2n1	99.2

Reported viability for CCOC(=O)N1CCC(NC(=O)Cn2cc3c(n2)CCC(C)C3)CC1 (stereo not drawn) was 98.7

###

# test-details: reversal of MRP1-mediated doxorubicin resistance, pilot screen, H69AR cells, doxorubicin co-treatment (AID 601)
# protocol-conditions: H69AR cells, CellTiter-Glo, 72 h; compound alone cytotoxicity; at 10 µM
property: viability (%)
Give the value, in units of %, as a plain number.

Recorded viability, per entry:
compound	reading-unit	viability
CC(c1ccco1)N(Cc1ccco1)C(=O)Nc1ccccc1 (centres undefined)	%	91.2
Cc1cc(N2CCN(C)CC2)nc(N2CCOCC2)n1	%	92.2

viability for COc1cccc(NC(=O)c2ccccc2NS(C)(=O)=O)c1 is 91.9

The recorded viability for entry C=CCSc1n[nH]c(-c2ccc(OC)cc2)n1 equals 90.3

Lookup result for Cc1[nH]c2c(C)cccc2c(=O)c1Br ; measured viability: 91.9

###

viability: recorded values
# test-details: reversal of MRP1-mediated doxorubicin resistance, pilot screen, H69AR cells, doxorubicin co-treatment (AID 601)
# protocol-conditions: H69AR cells + 2 uM doxorubicin, CellTiter-Glo, 72 h; measured here: viability with 2 uM doxorubicin; at 10 µM; stronger effect = lower value
The reply should be a number in %, with the unit left off.

Some entries whose results are on file:
1) Cc1c(NC(=O)c2nn(C)c(=O)c3ccccc23)c(=O)n(-c2ccccc2)n1C 89.1
2) COC(=O)Nc1ccc(S(=O)(=O)N2CCCCCC2)cc1 91
3) COc1ccc(OC)c(S(=O)(=O)NCCO)c1 80.7

Sample Cc1cc(C(=O)Nc2cc(C)n(Cc3ccc(Cl)cc3)n2)no1 ; viability observed: 92.1

In plain terms, COc1ccc(CNS(=O)(=O)c2ccc3oc(C(=O)O)c(C)c3c2)cc1 has a documented viability of 91.6

###

# test-details: reversal of MRP1-mediated doxorubicin resistance, pilot screen, H69AR cells, doxorubicin co-treatment (AID 601)
# protocol-conditions: H69AR cells, CellTiter-Glo, 72 h; compound alone cytotoxicity; at 10 µM
property: viability

Observe how each entry below is paired with its result.
compound	property	result
CC(C)C(c1nnnn1C1CCCC1)N1CCN(C(=O)c2ccco2)CC1 (centres undefined)	viability	88.8%
COc1ccc(N2C(=O)c3cccc4cccc(c34)C2=O)nn1	viability	92.3%
Cc1cc(C)c(NC(=O)CSc2nnc(-c3ccncc3)n2Cc2ccco2)c(C)c1	viability	97.4%
CCC(C)(C)n1nnnc1C(c1ccccc1OC)N1CCSCC1 (centres undefined)	viability	90%
CC(CN1CCCCC1)OC(=O)c1ccc2c(c1)OCO2 (centres undefined)	viability	94.1%

The compound listed as CC1(C)O[C@@H]2C[C@H]3[C@@H]4C[C@H](F)C5=CC(=O)CC[C@]5(C)[C@H]4[C@@H](O)C[C@]3(C)[C@]2(C(=O)CO)O1 has a reported viability of 95.2%

GET /value?item= NC(=O)c1ccsc1NC(=O)COC(=O)Cc1ccsc1 &field=viability returns 110%

Summary for this compound, CCn1c(SCC(N)=O)nnc1-c1ccc(S(=O)(=O)N2CCN(C)CC2)cc1 : viability is 95.8%

viability measured on COc1ccc(C(=O)N2CCN(C3CCCCC3)CC2)c(OC)c1 = 95.3%

viability recorded for this compound, COC(=O)c1ccccc1NC(=O)N1CCCC1 , is 103%

// viability value for CCn1nccc1C(=O)Nc1nccs1 : 93.7%

Memo: CCOC(=O)C1=C(N)c2ccccc2CC1C(C)C (centres undefined) , reported viability: 72%

Reported viability for CN(Cc1nc(-c2ccncc2)no1)S(=O)(=O)c1ccc(Cl)cc1 was 88.9%

In plain terms, CSc1cccc(NC(=O)C2CCN(S(C)(=O)=O)CC2)c1 has a documented viability of 90.3%

Per the records, this compound ( O=C(CN(c1ccc(F)cc1)S(=O)(=O)c1ccc2c(c1)OCCO2)NCC1CCCO1 (centres undefined) ) has viability equal to 100%

###

Overview of recorded viability for various molecules
# test-details: reducers of endogenous Her2 protein level, primary screen, SKBR3 breast tumor cells, AlphaScreen, ATP viability (AID 461);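 note: percent of carrier control wells set as 100% viability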
# protocol-conditions: 18-24 h, measured here: SKBR3 viability, ATP luminescence, at 10 µM
# output: bare number, implied unit %

molecule	viability (%)
COc1ccc(NC(=O)CCNC(=O)Cn2ccc3ccccc3c2=O)c(OC)c1	101
O=C(CCNC(=O)Cn1ccc2ccccc2c1=O)NCCN1CCN(c2ccccc2F)CC1	96
CCOc1ccc2nc(NC(=O)C(NS(=O)(=O)c3cccs3)C(C)C)sc2c1 (stereo not given)	116
COc1ccc(N2CCN(C(=O)CSc3ccccc3N)CC2)cc1	85.5

Note to self: viability recorded for O=C(NCc1ccco1)c1c2c(nc3ccccc13)CCC2 was 108

###

# test-details: HUVEC growth inhibition – cell-based, human, primary screen (AID 575);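 note: 100% = median of untreated cell wells with 0.1% DMSO on each plate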
# protocol-conditions: HUVEC proliferation, CellTiter-Glo luminescence, 72 h; at 10 µM; stronger effect = lower value
property: viability (%)
Output spec: scalar in %, unitless text.

Illustrative cases are given below, each with its answer.
1) O=C(CSc1nc2ccccc2o1)N1CCN(c2ccc(Cl)cc2)CC1 92.6
2) Cc1c(NC(=O)c2ccc(=O)oc2)c(=O)n(-c2ccccc2)n1C 90.9

// switching to the query compound
// CCOc1ccc2[nH]cc(C(=O)N3CCN(CC)CC3)c(=O)c2c1 : viability value = 91.2

###

# test-details: reversal of MRP1-mediated doxorubicin resistance, pilot screen, H69AR cells, doxorubicin co-treatment (AID 601)
# protocol-conditions: H69AR cells + 2 uM doxorubicin, CellTiter-Glo, 72 h; at 10 µM; stronger effect = higher value
Calls of active or inactive are those of the source.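 Rule for the calls: active = viability loss from added drug above about 55%, and viability with drug at most 40%, in both replicates (limit read from the data, passing the limit was not always enough); inconclusive = both conditions met in only one replicate; inactive = neither replicate meets both conditions.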
property: differential viability (reversal)

compound	differential viability (reversal)
Cc1ccc(CCNC(=O)C2CCN(S(=O)(=O)c3cccc4nsnc34)CC2)cc1	-3.61% (inactive)
COc1ccccc1C1C(C#N)=C(N)Oc2cc(C)n(Cc3ccccn3)c(=O)c21 (stereo not drawn)	-2.41% (inactive)
O=C1OC(N2CCN(c3ccccn3)CC2)c2ccccc21 (stereo not drawn)	7.36% (inactive)
CCCCc1ccc(NC(=O)N[C@H](C(=O)O)C(C)C)cc1	-0.205% (inactive)
CCc1c(C(=O)NCCc2ccc(OC)c(OC)c2)[nH]c(C)c1C(C)=O	4.88% (inactive)
O=C(O)c1ccccc1Nc1cccc(C(F)(F)F)c1	11.3% (inactive)

# differential viability (reversal) of Cc1cc(C)n(CC(=O)NC2CCCCC2)n1 = 12.7% (inactive)

GET /value?item= CC(=O)Nc1ccc(S(=O)(=O)N2CCN(Cc3ccncc3)CC2)cc1 &field=differential viability (reversal) returns 18.1% (inactive)

###

# test-details: growth inhibitors of H69AR lung tumor, primary screen, human, duplicate replicates (AID 580);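 note: 100% = mean luminescence of untreated wells and 0% = no signal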
# protocol-conditions: H69AR lung tumor cells viability, ATP luminescence, 72 h; at 10 µM; stronger effect = lower value
property: viability (%)
Unit % implied. Number only.

1) O=C(CCN1CCN(CCO)CC1)Nc1ccc(OCc2ccccc2)cc1 88.9
2) CN(CC(=O)Nc1ccccc1Cl)C(=O)COC(=O)CNC(=O)c1ccc(Br)o1 104
3) Cc1ccc(S(=O)(=O)NC(=O)NN2CCCCCC2)cc1 114

Now let's try a different one.
In plain terms, O=C(C1CCN(c2nnc(-n3cccc3)s2)CC1)N1CCN(Cc2ccc3c(c2)OCO3)CC1 has a documented viability of 82

###

# test-details: HUVEC growth inhibition – cell-based, human, primary screen (AID 575);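 note: 100% = median of untreated cell wells with 0.1% DMSO on each plate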
# protocol-conditions: HUVEC proliferation, CellTiter-Glo luminescence, 72 h; at 10 µM; stronger effect = lower value
property: viability (%)
Return type: number; implicit unit %.

# molecule O=C(C1CCN(c2nnc(-n3cccc3)s2)CC1)N1CCN(Cc2ccc3c(c2)OCO3)CC1 ; its viability = 105

Form field viability, entry CN(c1ccccc1C(=O)NCC1CCCO1)S(C)(=O)=O (stereo not given) : 103

response.value for CCCN1Cc2cccc(C(=O)NCc3cccs3)c2C1=O (field: viability) = 111

Value of measured viability for the entry CC(C)N(O)C(=O)NC(C)(C)C : 97.8

Consider CCOC(=O)c1cnc(-n2nc(C)cc2C)nc1N1CC(C)OC(C)C1 (stereo not given) . Its measured viability is 105

For CCn1c(SCC(=O)Nc2ccccc2N2CCCCC2)nc2c1c(=O)n(C)c(=O)n2C the molecule record lists viability as 75.4

// viability lookup, molecule = CC(CCc1ccccc1)NCC(O)c1ccc(O)c(C(N)=O)c1 (stereo not given) , result: 104

Memo: O=C(Cc1ccccc1)Nc1ccc(CN2CCOCC2)cc1 , reported viability: 105

The value of viability measured for the molecule O=C(Cn1c(=O)oc2ccccc21)Nc1ccc(S(=O)(=O)N2CCCCC2)cc1 turned out to be 89.2

Data point: CCCCC[C@H](O)/C=C/C1=C(CCCCCCC(=O)O)C(=O)CC1 ; viability = 75.2
